Values were extracted from PubChem BioAssay AID1851.

subject-of-test: Cytochrome P450 3A4 (Homo sapiens)
test-method-notes: Cytochrome panel assay with activity outcomes; also: % is scaled to controls: 0 for no effect and ±100 for the full control effect
test-conditions: recombinant CYP, pro-luciferin dealkylation, luminescence, p450-cyp3a4; series mostly up to 57.1 µM
Method: The P450 gene superfamily is involved in the metabolism and clearance of xenobiotics. This assay used various human CYP P450 isozymes to measure the dealkylation of various pro-luciferin substrates to luciferin. The luciferin is then measured by luminescence after the addition of a luciferase detection reagent. […] Inhibitors and some substrates limit the production of luciferin, and decrease measured luminescence. […] 8, Detection, 1 sec, ViewLux luminescent read […]
The campaign covered roughly 16,000 compounds. About 5,100 (32%) were called active. Inconclusive results (about 25%) are left out. The list shows a part of the results.
quantity: activity, negative = inhibition

Example cases with answers are listed next.
{"record-smiles": "CCCCN1C(=O)/C(=C/c2ccc(N(C)C)cc2)C(=O)N(Cc2ccco2)C1=O", "activity, negative = inhibition": "-12% [at 2.29 µM] (inactive)"}
{"record-smiles": "CC[N@+]1(C)CCC[C@@H](OC(=O)C(O)(c2ccccc2)c2ccccc2)C1", "activity, negative = inhibition": "inactive"}
{"record-smiles": "Cc1ccc(C(=O)C2C(=O)c3ccccc3C2=O)cc1", "activity, negative = inhibition": "-18.3% [at 11.4 µM] (inactive)"}
{"record-smiles": "c1csc(CN2CC3(CCNCC3)C2)n1", "activity, negative = inhibition": "inactive"}
{"record-smiles": "CC[C@H](C)C(=O)O[C@@H]1[C@H](O)[C@@H]2[C@H](CN3C[C@@H](C)CC[C@@H]3[C@@]2(C)O)[C@@H]2C[C@@]34O[C@@]5(O)[C@@H](OC(=O)[C@](C)(O)CC)CC[C@@]3(C)[C@H]5[C@H](OC(C)=O)[C@@H](OC(C)=O)[C@H]4[C@]12O", "activity, negative = inhibition": "inactive"}

Q: Recorded activity, negative = inhibition of O=C(O)[C@H]1C[C@@H]1[C@H](NP(=O)(c1ccccc1)c1ccccc1)c1ccccc1 , please.
Ans: inactive

Q: Item c1ccc2c(c1)OC[C@@H](C1=NCCN1)O2 has what recorded activity, negative = inhibition?
Ans: inactive

Q: Requested field: activity, negative = inhibition. Item: C=C(C)[C@H]1CN[C@H](C(=O)O)[C@@H]1CC(=O)O
Ans: inactive

Q: For CCN1CCN(Cc2cc(OC)c(OC)cc2[N+](=O)[O-])CC1 , what is its reported activity, negative = inhibition?
Ans: inactive

* * *

subject-of-test: Cytochrome P450 3A4 (Homo sapiens)
test-method-notes: Cytochrome panel assay with activity outcomes; also: % is scaled to controls: 0 for no effect and ±100 for the full control effect
test-conditions: recombinant CYP, pro-luciferin dealkylation, luminescence, p450-cyp3a4; series mostly up to 57.1 µM
Out of some 16,000 compounds screened, about 5,100 (32%) were called active. Roughly 25% stayed inconclusive and do not appear here. Some of the results follow.
quantity: activity, negative = inhibition

{"molecule": "c1ccc(CN2CCCC3(CCNCC3)C2)cc1", "recorded-value": "inactive"}
{"molecule": "CN1CCc2cccc(Cl)c2CC1", "recorded-value": "inactive"}
{"molecule": "CSCC[C@@H](N)P(C)(=O)O", "recorded-value": "-8.04% [at 11.4 µM] (inactive)"}
{"molecule": "C[N+](C)(C)CCO", "recorded-value": "inactive"}
{"molecule": "NCCP(=O)(O)O", "recorded-value": "-6.9% [at 11.4 µM] (inactive)"}

Continue with the molecule presented below.
Q: Item under review: O=C(O)c1cc[c]([Hg][S]c2ncnc3nc[nH]c23)cc1 . Reported activity, negative = inhibition?
Ans: -15.7% [at 11.4 µM] (inactive)
